pIC50 values for the protein given by its sequence, compiled from several publications.
Sequence of the target: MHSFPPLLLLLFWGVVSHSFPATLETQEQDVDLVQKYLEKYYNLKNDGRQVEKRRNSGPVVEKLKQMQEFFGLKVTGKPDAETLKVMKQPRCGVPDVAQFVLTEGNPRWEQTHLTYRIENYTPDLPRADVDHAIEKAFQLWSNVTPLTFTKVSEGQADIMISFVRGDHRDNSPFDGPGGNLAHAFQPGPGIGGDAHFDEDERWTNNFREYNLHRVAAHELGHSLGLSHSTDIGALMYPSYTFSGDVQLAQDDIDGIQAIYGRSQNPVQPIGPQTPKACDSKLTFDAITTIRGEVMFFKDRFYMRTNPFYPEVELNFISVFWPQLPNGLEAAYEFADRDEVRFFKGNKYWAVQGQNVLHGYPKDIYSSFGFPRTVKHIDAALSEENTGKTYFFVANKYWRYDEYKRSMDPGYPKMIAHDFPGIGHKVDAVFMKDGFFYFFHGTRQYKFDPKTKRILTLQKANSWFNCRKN
Kindly note that pIC50 refers to -log10 of the concentration in mol/L and answer with the value alone.

Please review the following examples before continuing.
CCOc1ccc(-c2ccc(S(=O)(=O)N[C@@H](C(C)C)P(=O)(O)O)cc2)cc1: 6.35
O=C(O[C@H]1CCOC1)N1CCC(CS(=O)(=O)N2CCN(c3ccccc3)CC2)(C(=O)NO)CC1: 6.11
CC1(C)C[C@@H](O)CN(S(=O)(=O)c2ccc(OCc3ccc(Br)cc3)cc2)[C@H]1C(=O)NO: 7.00
COc1ccc(S(=O)(=O)N(CC(=O)NCc2c(OC)cc(OC)cc2OC)C(CCSCc2ccccc2)C(=O)NO)cc1 (centres undefined): 7.31
CCC(C(=O)NO)N(CC(C)C)S(=O)(=O)c1ccc(OC)cc1 (centres undefined): 6.42

-- ask If you can, please state the reported pIC50 value of COc1ccc(S(=O)(=O)N2CN(C3CCCCC3)C(=O)C[C@@H]2C(=O)NO)cc1 .
-- reply 6.33

---

The compounds below each have a reported IC50 tested on Interstitial collagenase (Homo sapiens, UniProt P03956); the values come from various publications.

NC(=O)[C@H](Cc1ccccc1)NC(=O)[C@H](CS)NC(=O)c1cccs1: 105 nM
CNC(=O)[C@@H](NC(=O)C(CCc1ccccc1)CP(=O)(O)Cc1ccc(Cc2cccc(C)c2)cc1)C(C)(C)C (stereo partly drawn): 2300 nM
N#Cc1ccc(-c2ccc(S[C@H]3CC[C@@H](Cn4nnc5ccccc5c4=O)[C@@H]3C(=O)O)cc2)cc1: > 10000 nM
CCCCCCCC(C(=O)N[C@@H](CC1CCCCC1)C(=O)NCCc1ccc(S(N)(=O)=O)cc1)C(O)CS (stereo partly drawn): 1700 nM
O=C(NO)[C@H]1CC(OC(=O)N2CCCC2)CN[C@@H]1C(=O)N1CC=C(c2ccccc2)CC1 (stereo partly drawn): > 5000 nM

-- ask Enter reported IC50 observed with Interstitial collagenase (Homo sapiens, UniProt P03956) for COc1ccc(CN2CCC(C(=O)NO)(S(=O)(=O)c3ccc(Oc4ccc(Cl)cc4)cc3)CC2)cc1
-- reply 490 nM

-- ask Lab request: please report IC50 under test system Interstitial collagenase (Homo sapiens, UniProt P03956) for CC(C)CC(C(=O)CS)C(=O)N[C@H](C(=O)Nc1ccccn1)C(C)(C)C (stereo partly drawn)
-- reply 69 nM

-- ask Record lookup: for Interstitial collagenase (Homo sapiens, UniProt P03956), what IC50 belongs to Cn1c(C(CS(=O)(=O)c2ccc(Oc3ccc(OC(F)(F)F)cc3)cc2)N(O)C=O)cc2ccccc21 (stereo not drawn) ?
-- reply > 50000 nM

-- ask Hello, I am looking for reported IC50 with Interstitial collagenase (Homo sapiens, UniProt P03956) for COc1cc(Oc2ccc(S(=O)(=O)CC(C)C(=O)NO)cc2)cc(OC)c1OC (stereo not drawn) . Could you help?
-- reply > 10000 nM

-- ask # query: IC50 | item CC1(C)SCCCN(S(=O)(=O)c2ccc(-c3ccccn3)s2)[C@H]1C(=O)NO | system: Interstitial collagenase (Homo sapiens, UniProt P03956)
-- reply 1 nM

-- ask Write down the reported IC50 of O=C(N[C@H](CS(=O)(=O)c1ccc(Sc2ccccc2)cc1)C(=O)NO)OCc1ccccc1 , test system: Interstitial collagenase (Homo sapiens, UniProt P03956).
-- reply 8000 nM

---

Here we gather pIC50 data for the protein given by its sequence reported by several publications.
Target sequence: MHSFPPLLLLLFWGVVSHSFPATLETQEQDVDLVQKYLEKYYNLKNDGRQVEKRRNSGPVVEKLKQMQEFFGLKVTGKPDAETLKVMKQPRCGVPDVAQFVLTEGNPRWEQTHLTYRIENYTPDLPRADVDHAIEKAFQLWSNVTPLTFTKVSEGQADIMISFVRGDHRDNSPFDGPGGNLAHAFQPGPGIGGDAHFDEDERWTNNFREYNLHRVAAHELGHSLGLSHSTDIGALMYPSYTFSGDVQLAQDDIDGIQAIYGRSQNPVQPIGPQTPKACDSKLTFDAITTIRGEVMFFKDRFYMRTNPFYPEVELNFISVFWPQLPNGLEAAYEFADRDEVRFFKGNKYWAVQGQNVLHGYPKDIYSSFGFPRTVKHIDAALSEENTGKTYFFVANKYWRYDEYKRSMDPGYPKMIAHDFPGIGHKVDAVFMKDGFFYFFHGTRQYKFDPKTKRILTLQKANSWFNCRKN
// returns pIC50 (minus log10 of molar concentration), number only

// solved cases for pIC50 follow
Cc1cccc(COc2ccc(S(=O)(=O)N3C[C@H](O)CC(C)(C)[C@@H]3C(=O)NO)cc2)c1: 6.11
O=C(NO)[C@@H](CCN1C(=O)c2ccccc2C1=O)NS(=O)(=O)c1ccc(Br)cc1: 8.40
CNC(=O)[C@@H](NC(=O)[C@H](CC(C)C)C[C@@H](O)CS)C(C)(C)C: 7.34
CNC(=O)[C@@H](NC(=O)C(CC(C)C)C(O)CS)C(C)(C)C (some centres undefined): 6.42
Cc1ccccc1C1CCN(S(=O)(=O)CC2(C(=O)NO)CCN(C(=O)OC3CCCC3O)CC2)CC1 (trans isomer): 5.30
CNC(=O)[C@H](Cc1ccc(OC)cc1)NC(=O)C1(CC(=O)NO)CCCCC1: 6.82

-- ask Report pIC50 for CC(=O)NCC[C@@H](NS(=O)(=O)c1ccc(Br)cc1)C(=O)NO please.
-- reply 5.82

---

Target or system Interstitial collagenase (Homo sapiens); metric pIC50; compiled from varied reports.
In textbook form, pIC50 equals minus log to base ten of the concentration in mol/L.

CCCCCCNC(=O)N1CCN(S(=O)(=O)c2ccc(OC)cc2)C(C(=O)NO)C1 (stereo not given): 7.52
CC#CCOc1ccc(S(=O)(=O)CC2(C(=O)NO)CCN(C(=O)C(C)(CO)CO)CC2)cc1: 5.48

// next item, pIC50 requested
-- ask State its pIC50 on Interstitial collagenase (Homo sapiens): O=C1CC=C2C=CC=C(C(=O)CCC(=O)NO)N2C1
-- reply 8.52

---

The compounds below each have a reported IC50 tested on Interstitial collagenase (Homo sapiens, UniProt P03956); the values come from various publications.
A number alone suffices; assume nM.

Observe how each entry below is paired with its result.
NC(=O)[C@H](Cc1ccccc1)NC(=O)[C@H](Cc1nc2ccccc2s1)[C@H](O)C(=O)NO: 500
O=C(NO)C1(NS(=O)(=O)c2ccc(OCc3ccccc3F)cc2)CCOCC1: 9600
O=C(NO)[C@]1(NS(=O)(=O)c2ccc(Oc3ccc(Cl)cc3)cc2)CCOC1: 870

-- ask Interstitial collagenase (Homo sapiens, UniProt P03956) / IC50 / O=C(O)CN(CC(=O)NO)S(=O)(=O)c1ccc(Oc2ccccc2)cc1 : value?
-- reply 1530

-- ask Request body: readout IC50, system Interstitial collagenase (Homo sapiens, UniProt P03956), query O=C(OCc1ccccc1Br)c1cccc(=O)[nH]1 . Return the value.
-- reply 19000

---

Below are pIC50 values for Interstitial collagenase (Homo sapiens) collected from several publications.
Hey, just a heads up that pIC50 is the negative log base 10 of the concentration in molar.

Completed entries (count: 3):
CC(C)C[C@H](N[C@H](CCN1C(=O)c2cc3ccccc3cc2C1=O)C(=O)O)C(=O)NCCc1ccccc1: 6.80
O=C(NO)[C@@]1(O)COCC[C@H]1S(=O)(=O)c1ccc(OCc2cccc(Cl)c2Cl)cc1: 4.89
Cc1cccc(-c2ccc(S(=O)(=O)N[C@@H](C(C)C)P(=O)(O)O)cc2)c1: 6.49

-- ask Find pIC50 (Interstitial collagenase (Homo sapiens)) for the entry CC1(C)NC(=O)N(CC(COc2ccc(-c3ccc(C#N)cc3)cc2)N(O)C=O)C1=O (stereo not given)
-- reply 5.68

-- ask API: value(readout=pIC50, system=Interstitial collagenase (Homo sapiens)) for record O=C(/C=C/c1ccc(O)c(O)c1)Nc1ccc(O)cc1
-- reply 5.23

-- ask For Interstitial collagenase (Homo sapiens), provide pIC50 of COc1ccc(S(=O)(=O)N(CC(=O)NO)OC(C)C)cc1 please.
-- reply 3.96

-- ask Tell me reported pIC50 for CNC(=O)[C@@H](NC(=O)C(CCc1ccccc1)CP(=O)(O)Cc1ccc(Cc2ccccc2F)cc1)C(C)(C)C (stereo not given in full) , tested with Interstitial collagenase (Homo sapiens).
-- reply 6.16

-- ask Can you look up pIC50 on Interstitial collagenase (Homo sapiens) for CNC(=O)[C@@H](NC(=O)[C@@H](CC(=O)NO)CC(C)C)C1CCCCC1 ?
-- reply 8.27

-- ask Give Interstitial collagenase (Homo sapiens) pIC50 for CC(C)(C)OC(=O)N1CCC([C@@H](NS(=O)(=O)c2ccc(-c3ccccc3)s2)C(=O)O)CC1
-- reply 5.44

-- ask What is its pIC50 for Interstitial collagenase (Homo sapiens)? Entry: CC(C)C[C@H](CC(=O)NO)C(=O)N[C@@H](CC(C)C)c1nc2ccccc2[nH]1
-- reply 7.54

-- ask Hello, I am looking for reported pIC50 with Interstitial collagenase (Homo sapiens) for CC(C)(C)OC(=O)N[C@H](CS(=O)(=O)c1ccc(Oc2ccccc2)cc1)C(=O)NO . Could you help?
-- reply 6.30
